Consider the following compounds; for each one, report its Ki.
Molecular target: Alpha-1A adrenergic receptor (Rattus norvegicus, UniProt P43140)
Sequence (P43140 whole entry): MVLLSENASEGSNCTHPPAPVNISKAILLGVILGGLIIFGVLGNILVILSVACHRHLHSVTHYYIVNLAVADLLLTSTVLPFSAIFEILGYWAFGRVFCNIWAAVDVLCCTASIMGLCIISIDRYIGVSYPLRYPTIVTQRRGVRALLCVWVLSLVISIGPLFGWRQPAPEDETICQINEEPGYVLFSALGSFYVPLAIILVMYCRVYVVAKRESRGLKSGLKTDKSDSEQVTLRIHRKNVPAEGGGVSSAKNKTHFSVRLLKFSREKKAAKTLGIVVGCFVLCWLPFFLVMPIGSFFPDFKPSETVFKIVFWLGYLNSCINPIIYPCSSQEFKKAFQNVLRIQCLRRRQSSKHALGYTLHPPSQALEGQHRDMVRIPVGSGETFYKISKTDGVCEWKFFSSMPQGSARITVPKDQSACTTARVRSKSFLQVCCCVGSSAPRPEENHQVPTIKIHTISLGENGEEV

**Q:** Please report the measured Ki for CC(C)n1nc(C(=O)NCCN2CCC(NC(=O)OCc3ccccc3)CC2)c2ccccc21
**A:** > 10 µM

Kindly give each listed record's Ki.
1. CC(C)n1nc(C(=O)NC2CCN(Cc3ccccc3)CC2)c2ccccc21
2. CC(C)n1nc(C(=O)NC2CCN(CCNS(C)(=O)=O)CC2)c2ccccc21

**A:**
> 10 µM
> 10 µM
